The measured values listed here are drawn from the supplement of paper PMC8728848.

EXPERIMENTAL_TARGET: Man(a1-3)[Man(a1-6)]Man(a1-6)[Man(a1-3)]Man
ASSAY_METHOD_TEXT: glycan array binding signal (z-score within array); higher = stronger binding
CONDITION_PARAMETERS: glycan notation: IUPAC condensed, linker removed
About 410 targets per protein were measured; listed, in parts, are those with the strongest signals and a random draw of the rest.
EXPERIMENTAL_READOUT: glycan array binding signal (z-score)
Field format: numeric only.

Solved entries:
| BINDER | glycan array binding signal (z-score) |
| --- | --- |
| PFL (Pseudomonas fluorescens) (protein) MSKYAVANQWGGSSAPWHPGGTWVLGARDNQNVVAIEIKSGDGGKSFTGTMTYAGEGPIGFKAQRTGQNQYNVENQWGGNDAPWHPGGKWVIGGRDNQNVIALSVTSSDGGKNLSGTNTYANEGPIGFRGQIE | 7.17 |
| SP15308C-bot-338-23-338 (Bacteroides ovatus) (protein) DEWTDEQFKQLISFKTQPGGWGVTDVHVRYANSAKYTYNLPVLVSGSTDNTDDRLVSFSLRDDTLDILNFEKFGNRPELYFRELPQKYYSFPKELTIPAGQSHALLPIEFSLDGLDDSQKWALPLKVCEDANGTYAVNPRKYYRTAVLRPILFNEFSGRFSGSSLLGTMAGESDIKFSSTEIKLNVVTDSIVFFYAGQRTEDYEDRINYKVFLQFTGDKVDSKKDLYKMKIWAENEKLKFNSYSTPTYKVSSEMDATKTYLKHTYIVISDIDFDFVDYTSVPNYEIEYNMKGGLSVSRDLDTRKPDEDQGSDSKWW | 0.294 |
| Gal 8 (Homo sapiens), O00214_1 (protein) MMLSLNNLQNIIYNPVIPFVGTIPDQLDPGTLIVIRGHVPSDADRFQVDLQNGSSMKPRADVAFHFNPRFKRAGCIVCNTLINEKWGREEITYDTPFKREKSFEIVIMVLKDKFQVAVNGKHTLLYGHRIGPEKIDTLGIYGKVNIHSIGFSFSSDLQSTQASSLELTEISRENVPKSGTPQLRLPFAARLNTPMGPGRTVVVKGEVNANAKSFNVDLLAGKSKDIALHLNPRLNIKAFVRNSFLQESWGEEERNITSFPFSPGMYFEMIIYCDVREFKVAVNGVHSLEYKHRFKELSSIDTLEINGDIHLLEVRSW | -0.195 |
| Flo5 (Saccharomyces cerevisiae), P38894 (protein) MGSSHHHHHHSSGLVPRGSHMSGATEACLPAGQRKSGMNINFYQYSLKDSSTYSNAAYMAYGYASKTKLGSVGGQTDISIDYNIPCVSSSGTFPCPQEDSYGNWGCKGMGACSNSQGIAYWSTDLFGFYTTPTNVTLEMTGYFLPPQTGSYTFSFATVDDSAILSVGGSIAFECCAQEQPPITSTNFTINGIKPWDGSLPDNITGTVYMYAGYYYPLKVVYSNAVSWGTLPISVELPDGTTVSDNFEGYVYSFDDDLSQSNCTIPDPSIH | 3.11 |

Switching to the query record.
Consider the binder shown here: Tachylectin-2 (Tachypleus tridentatus), TAL2_TACTR (protein) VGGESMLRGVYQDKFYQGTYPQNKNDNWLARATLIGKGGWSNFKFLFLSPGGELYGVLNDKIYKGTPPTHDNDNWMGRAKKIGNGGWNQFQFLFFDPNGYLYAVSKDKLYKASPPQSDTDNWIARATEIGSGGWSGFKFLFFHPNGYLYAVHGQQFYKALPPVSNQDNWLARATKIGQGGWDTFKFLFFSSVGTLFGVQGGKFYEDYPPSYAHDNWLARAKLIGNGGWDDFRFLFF What is its recorded glycan array binding signal (z-score)?
-0.344
